Values compiled from PubChem BioAssay AID330.

Record form. Attribute: T/C. Fill in for each entry.
- Test system: P388 leukemia ip, CD2F1 mice, survival T/C
- assayNotes: NCI In Vivo Anticancer Drug Screen. Data for tumor model P388 Leukemia (intraperitoneal) in CD2F1 (CDF1) mice
- protocolConditions: endpoint: median survival time; dose: 60.0 mg/kg/injection; schedule: Q01DX005 (ip); vehicle: saline; higher = longer survival
Inconclusive results and toxic doses are left out.

Nc1c2c(=O)[nH]c(=O)c2c(N)c2c(=O)c3ccccc3c(=O)c12 ... 103 % of control
O=C1OC(C2OC(=O)C(=O)C2C(=O)c2ccc(Cl)c(Cl)c2)C(C(=O)c2ccc(Cl)c(Cl)c2)C1=O (stereo not given) ... 100 % of control
O=C1C2CSCN2C(=O)CN1CCN1CCOCC1 (stereo not given) ... 100 % of control
COC1(OC)C=NNc2ncnn21 ... 103 % of control

Inquiry: Please give the measured T/C for this compound: O=C(OCCOCCO)c1ccccc1-c1c2cc(I)c(=O)c(I)c-2oc2c(I)c(O)c(I)cc12
Reply text: 94 % of control

====

- Tested on: P388 leukemia ip, CD2F1 mice, survival T/C
- assayNotes: NCI In Vivo Anticancer Drug Screen. Data for tumor model P388 Leukemia (intraperitoneal) in CD2F1 (CDF1) mice
- protocolConditions: endpoint: median survival time; dose: 100.0 mg/kg/injection; schedule: Q01DX005 (ip); vehicle: Klucel (hydroxypropylcellulose) (HPC); higher = longer survival
- Protocol: The antitumor activity of compounds was measured in mice bearing transplantable tumors. Survival or tumor size were measured and the results are expressed as the measurement made in the treated group (T) divided by the measurement made in the vehicle treated control group (C). The tumor model used in this assay is P388 Leukemia (intraperitoneal) in CD2F1 (CDF1) mice
Inconclusive results and toxic doses are left out. Square brackets hold non-standard residues; d marks the D form. Peptide text beside a SMILES is read from it. * marks the point of attachment. Cbz = O=C(OCc1ccccc1)*; Nva = CCC[CH](N)C(=O)O
recordedEndpoint: T/C

Known T/C results, listed for orientation:
C=CCC1(O)CC2NC(C1)[C@@H]1OC(C)(C)O[C@H]21 (stereo partly specified) ... 87 % of control
CC1=NN(C(C)(C)C)[Si](C)(C)C1 ... 97 % of control
FC(F)(F)C1(C(F)(F)F)O[P+](c2ccccc2)(c2ccccc2)c2ccccc21 ... 110 % of control
COC(=O)Nn1cc(C(C(C)=O)C(C)=O)c(C(C)=O)c1C ... 89 % of control
Cc1cc2cc3c4c(nn5cnnc5c4c2o1)-c1ccccc1CC3 ... 104 % of control

Could I get T/C for every one of these entries?
1. O=C1OC2=C(CCc3nc(-c4ccccc4)sc32)C(N(c2ccccc2)c2ccccc2)C1(Cl)Cl (stereo unspecified)
2. CCCC(NC(=O)OCc1ccccc1)C(=O)NC(Cc1ccccc1)C(N)=O (stereo unspecified) (Cbz-[Nva]-Phe-NH2; configuration not given here)
3. CCOC(=O)CC(O)(c1ccc2c(c1)OCO2)c1cc(OC)c(OC)c(OC)c1 (stereo unspecified)
4. CCCCC(NC(=O)C(CCCC)NC(=O)OCc1ccccc1)C(=O)O (stereo unspecified)
5. COc1ccc(OCCCBr)c(Br)c1

Reply text:
90 % of control
97 % of control
89 % of control
93 % of control
97 % of control

Could I get T/C for every one of these entries?
1. COC1(OC)C(=S)N(C(C)C)C(=S)N1C(C)C
2. COc1ccc(C(O)(CCN2CCOCC2)c2ccc3c(c2)OCO3)cc1 (stereo unspecified)
3. CCCCOc1ncnc2nc[nH]c12
4. Cc1ccc(C2(c3ccc(C)cc3)CCCCCC2=O)cc1

Reply text:
1. 96 % of control
2. 91 % of control
3. 103 % of control
4. 97 % of control

Could I get T/C for every one of these entries?
1. CCCn1c(C)nc2c(N)cc(C)cc21
2. CCOC(=O)C1=CNc2c(C#N)cnn2C12C(=O)Oc1ccc(OC)cc12 (stereo unspecified)

Reply text:
97 % of control
105 % of control

====

- Tested on: P388 leukemia ip, CD2F1 mice, survival T/C
- assayNotes: NCI In Vivo Anticancer Drug Screen. Data for tumor model P388 Leukemia (intraperitoneal) in CD2F1 (CDF1) mice
- protocolConditions: endpoint: median survival time; dose: 200.0 mg/kg/injection; schedule: Q01DX009 (ip); vehicle: saline with Tween-80; higher = longer survival
Toxic doses and inconclusive results are not listed.
recordedEndpoint: T/C

CC1(C)COC(=O)C(C(=O)O)=C1C(=O)O ... 90 % of control
C=C(C)C(C(=O)OCC)C(=O)OCC ... 110 % of control

Could I get T/C for every one of these entries?
1. COc1ccc(CC(=O)Cc2ccc(OC)c(OC)c2)cc1OC
2. Cc1c([N+](=O)[O-])ccn1C
3. CC12CC3(C)CC(C(Cl)C(=O)O)(C1)CC(C(Cl)C(=O)O)(C2)C3 (configuration not stated)
4. Cc1c(CCNC=O)cc(C)c2c3c(oc12)CCCC3
5. COc1ccc(/C=N/Nc2ccccc2)cc1

Reply text:
1: 95 % of control; 2: 97 % of control; 3: 107 % of control; 4: 94 % of control; 5: 99 % of control

Could I get T/C for every one of these entries?
1. CCCCCCC(=O)/C=C/c1ccc(OC)c(OC)c1OC
2. c1c2c(cc3c1OCO3)Cc1cc3c(cc1Cc1cc4c(cc1C2)OCO4)OCO3
3. CN(C)c1nc(N(C)C)nc(N(C)C)n1
4. O=C(NNc1ccc([N+](=O)[O-])cc1[N+](=O)[O-])Nc1cccc(Cl)c1
5. CCC[CH2][Sn][Cl]

Reply text:
["102 % of control", "100 % of control", "108 % of control", "102 % of control", "117 % of control"]

Could I get T/C for every one of these entries?
1. OC(c1ccncc1)c1cc(Cl)ccc1Cl (configuration not stated)
2. FC(F)(F)c1cccc(CSCc2c(CSCc3cccc(C(F)(F)F)c3)c(CSCc3cccc(C(F)(F)F)c3)c(CSCc3cccc(C(F)(F)F)c3)c(CSCc3cccc(C(F)(F)F)c3)c2CSCc2cccc(C(F)(F)F)c2)c1
3. CCCn1c(O)c(C=N)c(=O)[nH]c1=O
4. CCOC(=O)C1OC(n2cnc3c(N)ncnc32)C(O)C1O (configuration not stated)
5. CC(=O)Oc1ccccc1C(=O)O
6. COc1cc(C(=O)NN=C2c3ccccc3-c3ccccc32)cc(OC)c1OC
7. CC(C)C(NC(=O)OC(C)(C)C)C(=O)ON1C(=O)CCC1=O (configuration not stated)

Reply text:
["108 % of control", "97 % of control", "95 % of control", "124 % of control", "95 % of control", "87 % of control", "99 % of control"]

====

- Tested on: P388 leukemia ip, CD2F1 mice, survival T/C
- assayNotes: NCI In Vivo Anticancer Drug Screen. Data for tumor model P388 Leukemia (intraperitoneal) in CD2F1 (CDF1) mice
- protocolConditions: endpoint: median survival time; dose: 100.0 mg/kg/injection; schedule: Q01DX005 (ip); vehicle: saline with Tween-80; higher = longer survival
Toxic doses and inconclusive results are not listed.
recordedEndpoint: T/C

Known T/C results, listed for orientation:
CC(NC(=O)OC(C)(C)C)C(=O)NC(C)C(=O)NC(C)C(=O)Nc1ccc([N+](=O)[O-])cc1 (centres undefined) ... 92 % of control
COC(=O)C1(C2(C(=O)OC)NC(C)=C(c3ccccc3)C(=O)O2)NC(C)=C(c2ccccc2)C(=O)O1 (centres undefined) ... 100 % of control
O=C(O)c1nn(-c2ccccc2-c2n[nH]c(=O)[nH]c2=O)c(=O)[nH]c1=O ... 90 % of control
O=S(=O)(c1ccc(F)cc1)C1C(c2ccccc2)=NNC1c1ccccc1Cl (centres undefined) ... 95 % of control
c1ccc(/C(=N\Nc2ccccn2)c2ccccn2)cc1 ... 117 % of control

Could I get T/C for every one of these entries?
1. c1ccc(CC2NCCc3c2[nH]c2ccccc32)cc1 (centres undefined)
2. O=C(O)/C=C\C(=O)ONCc1ccccc1
3. CCC(C)C(NC(=O)c1ccccc1)C(=O)O (centres undefined)
4. COc1ccccc1NC(=S)N/N=C\c1cc(N=Nc2ccccc2)cc(OC)c1O

Reply text:
["99 % of control", "106 % of control", "106 % of control", "89 % of control"]

====

- Tested on: P388 leukemia ip, CD2F1 mice, survival T/C
- assayNotes: NCI In Vivo Anticancer Drug Screen. Data for tumor model P388 Leukemia (intraperitoneal) in CD2F1 (CDF1) mice
- protocolConditions: endpoint: median survival time; dose: 50.0 mg/kg/injection; schedule: Q01DX009 (ip); vehicle: distilled water + Tween-80; higher = longer survival
Inconclusive results and toxic doses are left out.
recordedEndpoint: T/C

Known T/C results, listed for orientation:
CCOC(=O)CC1Cc2ccc3ccc(OC)cc3c2C1=O (stereo not given) ... 95 % of control
Cc1ccc(CC(=O)O)c2c1C(=O)CC2 ... 90 % of control
CC[As](CC)SC1OC(C2COC(C)(C)O2)C2OC(C)(C)OC12 (stereo not given) ... 120 % of control
OC(COc1cccc(C(F)(F)F)c1)CN1CCN(c2ccc(F)cc2)CC1 (stereo not given) ... 108 % of control

Inquiry: Record CCOC(=O)c1nc(C(Br)(Br)Br)[nH]c(=O)c1C : what is its T/C with P388 leukemia ip, CD2F1 mice, survival T/C?
Reply text: 113 % of control
